# MEASUREMENT_PROTOCOL: Tmax in Sprague-Dawley rat at 20 mg/kg, po administered as single dose
# Assay type: ADME, organism-based
# Design: dose 20 mg/kg, route oral
# STUDY_CONDITIONS: in vivo
READOUT_TYPE: Tmax (h)

COMPOUND: O=[N+]([O-])c1cn2c(n1)OC[C@@H](OCc1cnc(-c3ccc(OC(F)(F)F)cc3)cn1)C2
READOUT_TYPE: Tmax
QUANTITATIVE_RESULT: 5

COMPOUND: O=[N+]([O-])c1cn2c(n1)OC[C@@H](OCc1ccc(-c3ccc(OC(F)(F)F)cc3)cn1)C2
READOUT_TYPE: Tmax
QUANTITATIVE_RESULT: 6

COMPOUND: O=[N+]([O-])c1cn2c(n1)OC[C@@H](OCc1ccc(-c3ccc(OC(F)(F)F)c(F)c3)nc1)C2
READOUT_TYPE: Tmax
QUANTITATIVE_RESULT: 6

COMPOUND: O=[N+]([O-])c1cn2c(n1)OC[C@@H](OCc1ccc(-c3ccc(OC(F)(F)F)cc3)nc1)C2 [TBA-354]
READOUT_TYPE: Tmax
QUANTITATIVE_RESULT: 5

====

# MEASUREMENT_PROTOCOL: in vitro
# STUDY_CONDITIONS: CD1, mouse, liver microsomes
# Description: Metabolic stability in CD1 mouse liver microsomes assessed as compound remaining after 1 hr
// boundary case: remaining at 1 h equal to 80% maps to N; strictly smaller maps to Y

SMI: O=[N+]([O-])c1cn2c(n1)OC[C@@H](OCc1ccc(-c3ccc(OC(F)(F)F)cc3)nn1)C2
LABEL: N

SMI: O=[N+]([O-])c1cn2c(n1)OC[C@@H](OCc1ccc(-c3ccc(F)cn3)cc1)C2
LABEL: Y

SMI: O=[N+]([O-])c1cn2c(n1)OC[C@@H](OCc1ccc(-c3ccc(OC(F)(F)F)c(F)c3)nc1)C2
LABEL: N

SMI: COc1ccc(-c2ccc(CO[C@@H]3COc4nc([N+](=O)[O-])cn4C3)cc2)cn1
LABEL: Y

SMI: O=[N+]([O-])c1cn2c(n1)OC[C@@H](OCc1ccc(-c3ccc(OC(F)(F)F)c(Cl)c3)nc1)C2
LABEL: Y

SMI: O=[N+]([O-])c1cn2c(n1)OC[C@@H](OCc1ccc(-c3ccnc(F)c3)cc1)C2
LABEL: N

====

# MEASUREMENT_PROTOCOL: physchem
# STUDY_CONDITIONS: water, pH 7
# Description: Solubility of the compound in water at pH 7.0 by HPLC
// N strictly below 10 µg/mL in solubility; Y otherwise

SMI: O=[N+]([O-])c1cn2c(n1)OC[C@@H](OCc1ncc(-c3ccc(F)cc3)cn1)C2
LABEL: Y
--
SMI: COc1ccc(-c2ccc(CO[C@@H]3COc4nc([N+](=O)[O-])cn4C3)nc2)cn1
LABEL: Y
--
SMI: O=[N+]([O-])c1cn2c(n1)OC[C@@H](OCc1ccc(-c3ccc(C(F)(F)F)cc3)nc1)C2
LABEL: N
--
SMI: O=[N+]([O-])c1cn2c(n1)OC[C@@H](OCc1ccc(-c3ccc(OC(F)(F)F)c(Cl)c3)cn1)C2
LABEL: N
--
SMI: O=[N+]([O-])c1cn2c(n1)OC[C@@H](OCc1ccc(-c3ccc(C(F)(F)F)nc3)cn1)C2
LABEL: Y
--
SMI: N#Cc1ccc(-c2ccc(CO[C@@H]3COc4nc([N+](=O)[O-])cn4C3)cc2)nc1
LABEL: N
--
SMI: O=[N+]([O-])c1cn2c(n1)OC[C@@H](OCc1ccc(-c3cncc(F)c3)cn1)C2
LABEL: Y
--
SMI: O=[N+]([O-])c1cn2c(n1)OC[C@@H](OCc1ccc(-c3ccc(OC(F)F)cc3)nc1)C2
LABEL: N
--
SMI: O=[N+]([O-])c1cn2c(n1)OC[C@@H](OCc1ccc(-c3ccncc3F)cc1)C2
LABEL: Y
--
SMI: N#Cc1ccc(-c2cccc(CO[C@@H]3COc4nc([N+](=O)[O-])cn4C3)n2)cc1
LABEL: Y
--
SMI: O=[N+]([O-])c1cn2c(n1)OC[C@@H](OCc1ccc(-c3ccc(OC(F)(F)F)cc3F)nc1)C2
LABEL: N
--
SMI: COc1ccc(-c2cncc(CO[C@@H]3COc4nc([N+](=O)[O-])cn4C3)c2)cn1
LABEL: Y
--
SMI: O=[N+]([O-])c1cn2c(n1)OC[C@@H](OCc1ccnc(-c3ccc(C(F)(F)F)cc3)c1)C2
LABEL: N
--
SMI: O=[N+]([O-])c1cn2c(n1)OC[C@@H](OCc1cc(-c3ccc(F)cc3)ccn1)C2
LABEL: Y
--
SMI: O=[N+]([O-])c1cn2c(n1)OC[C@@H](OCc1ccc(-c3ccc(OC(F)F)nc3)cc1)C2
LABEL: N
--
SMI: N#Cc1ccc(-c2ccc(CO[C@@H]3COc4nc([N+](=O)[O-])cn4C3)cc2)cn1
LABEL: N
--
SMI: O=[N+]([O-])c1cn2c(n1)OC[C@@H](OCc1ccc(-c3cccc(F)n3)cc1)C2
LABEL: N
